Target: KRas Q61H mutant (Homo sapiens (Human), UniProt P01116, Q61H)
Sequence (P01116-2 other isoform, or with tags, fused parts or gaps Q61H): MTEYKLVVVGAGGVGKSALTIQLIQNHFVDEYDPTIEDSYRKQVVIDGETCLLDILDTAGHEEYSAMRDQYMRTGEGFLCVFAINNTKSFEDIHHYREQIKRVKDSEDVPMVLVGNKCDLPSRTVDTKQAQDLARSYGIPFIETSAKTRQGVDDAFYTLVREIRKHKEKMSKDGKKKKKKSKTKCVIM
Assay: Ras GTP binding domain inhibition assay (labeled GTP)
Settings: 20 μM compound; KRas Q61H; read-out: % Inhibition at 20 μM of K-Ras mutant and wild-type protein, KRas Q61H
Experimental: Buffer-I: • 50 mM Tris, pH 7.5 • 150 mM NaCl (optional) • 1 mM MgCl2 • 1 mM DTT. • KRas G12D mutant protein was expressed as a His-tagged protein. […] Then 22 μl of Cy3-GTP or Cy5-GTP was added to each well. The labeled GTP was incubated for 45 min. at room temperature. • Following GTP incubation, wells were washed 3× in Buffer-I, and 200 μl of Buffer-I were added to each well. • Following washes, the amount of bound labeled-GTP was measured with an Eppendorf AF2200 plate reader. […]
value.kind: inhibition at 20 µM

molecule: Cc1sc2c(O)nc(-c3ccccn3)nc2c1C(=O)N1CCN(c2ccccc2)CC1C (stereo not drawn) [drawing 3509]
system.tested: KRas Q61H mutant (Homo sapiens (Human), UniProt P01116, Q61H)
value.kind: inhibition at 20 µM
result: 51 to 75%
//
molecule: Cc1c(Br)sc2c(O)nc(-c3ccccn3)nc12 [drawing 3474]
system.tested: KRas Q61H mutant (Homo sapiens (Human), UniProt P01116, Q61H)
value.kind: inhibition at 20 µM
result: 51 to 75%
//
molecule: Oc1nc(-c2ccccn2)nc2c(C3CC3)csc12 [drawing 3518]
system.tested: KRas Q61H mutant (Homo sapiens (Human), UniProt P01116, Q61H)
value.kind: inhibition at 20 µM
result: 25 to 50%
//
molecule: CC(C)Cc1csc2c(O)nc(-c3ccccn3)nc12 [drawing 3494]
system.tested: KRas Q61H mutant (Homo sapiens (Human), UniProt P01116, Q61H)
value.kind: inhibition at 20 µM
result: 76 to 100%
//
molecule: COc1cnc(CNC(=O)c2csc3c(O)nc(-c4ccccn4)nc23)[nH]c1=O [drawing 3520]
system.tested: KRas Q61H mutant (Homo sapiens (Human), UniProt P01116, Q61H)
value.kind: inhibition at 20 µM
result: 0%

I'm hoping you can list inhibition at 20 µM for every molecule here, please.
1. Oc1nc(-c2ccccn2)nc2c(-c3cc(C(F)(F)F)ccc3F)csc12 [drawing 3465]
2. Nc1nc(O)c2sc(-c3cccc(C(=O)NCc4ncc[nH]4)c3)cc2n1 [drawing 3545]
3. NC(=O)C1CCCN1C(=O)c1cccc(-c2cc3nc(N)nc(O)c3s2)c1 (stereo not drawn) [drawing 3544]

1: 1 to 25%; 2: 0%; 3: 1 to 25%

Request the reported inhibition at 20 µM associated with COc1nc(-c2ccccn2)nc2c(C3CCCCC3)csc12 [drawing 3479] 1 to 25%

Hey, just so you know, these numbers are from patent US10940139B2.
